// provenance: the supplement of paper PMC9233669

Please go through the items and note down their self-aminoacylation.
test system: biotinyl-Ile-oxazolone; experiment: self-aminoacylation, catalytic enhancement (BIO) (fold over background); higher = more active; k-Seq, kA / k0A0; sequences stand for … in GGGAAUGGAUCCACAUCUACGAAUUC…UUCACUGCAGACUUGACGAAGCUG
Variants at the floor of the assay were thinned out.

Item under review: AAGUUUGCUACUAGUCGUAAG [Fam3.1 aminoacylation ribozyme variant] . Reported self-aminoacylation?
0.772

Entry CCACACUUCAGGCAGUCGGUC [Fam1B.1 aminoacylation ribozyme variant] please
1.48

Another sequence: GCACACUUCCAGCAAUCGGUC [Fam1B.1 aminoacylation ribozyme variant]
2.01

Follow-up entry: AUGACCCUGGUCAUCGAGUAA [Fam2.1 aminoacylation ribozyme variant]
3.71

And what about the sequence AUUGACCUAUGUCAUCGGGUG [Fam2.2 aminoacylation ribozyme variant] ?
3.81

Can you handle AUUCACCUAGGUCAUUGGGAG [Fam2.2 aminoacylation ribozyme variant] next?
1.15

What about this sequence? AUGCACCUAGGUCAUCGGGCG [Fam2.2 aminoacylation ribozyme variant]
2.08

Same question, AUUCAACUACGUCAUCGGGUG [Fam2.2 aminoacylation ribozyme variant] this time
3.26

Same question, CCACACUUCAGGCAAUCGGGC [Fam1B.1 aminoacylation ribozyme variant] this time
2.46
